Overview of recorded GI50 for various compounds
Tested on: HOP-92
assaySummary: NCI tumour cell line growth inhibition, 48 h
Active and inactive are the calls of the source. No stated cut-off is given here; in the data, active = GI50 up to about 1.1 µM and inactive = higher.

Consider the following illustrative entries.
{"compound": "COCCOC(=O)NCn1cc(-c2ccccc2)nn1", "GI50": "> 100 µM (inactive)"}
{"compound": "CC[C@]1(O)C(=O)OCc2c1cc1n(c2=O)Cc2cc3c(N)cccc3nc2-1", "GI50": "> 100 µM (inactive)"}
{"compound": "COc1cc2c(c(O)c1O)-c1ccc(OC)c(=O)cc1C(NC(C)=O)CC2 (stereo unspecified)", "GI50": "4.59 µM (inactive)"}
{"compound": "CCOP(=O)(OCC)/C(=C/c1ccccc1)CC(C)=O", "GI50": "> 100 µM (inactive)"}
{"compound": "CCOC(=O)/C=C/CC(C)(C)CCOC(C)=O", "GI50": "> 10 µM (inactive)"}

Here is another compound to look at.
Given the compound CC(C)(C)NCCC(O)c1cc(C(F)(F)F)nc2c(C(F)(F)F)cccc12 (stereo unspecified) , write its reported GI50.
12.3 µM (inactive)

---

Overview of recorded GI50 for various compounds
System: CAKI-1
assaySummary: NCI tumour cell line growth inhibition, 48 h
Activity calls are given as the source filed them. No stated cut-off is given here; in the data, active = GI50 up to about 1.1 µM and inactive = higher.

Consider the following illustrative entries.
{"molecularString": "O=C(/C=C/c1ccc(Cl)c(Cl)c1)c1ccc2ccccc2c1", "GI50": "> 100 µM (inactive)"}
{"molecularString": "O=[As](O)(O)c1ccc(/N=N/c2ccc(O)cc2)cc1", "GI50": "> 100 µM (inactive)"}

Given the compound `COc1ccc(-c2coc3cc(O)ccc3c2=O)cc1` , write its reported GI50.
> 100 µM (inactive)

Given the compound `CCCNC(=S)N/C=C1\C(=O)Nc2ccccc2C1=O` , write its reported GI50.
> 100 µM (inactive)

Given the compound `COc1cccc2c1C(=O)C=CC2=O` , write its reported GI50.
7.66 µM (inactive)

Given the compound `CCOC(=O)C(=CNC(=S)Nc1c(CC)cccc1CC)C(=O)OCC` , write its reported GI50.
> 100 µM (inactive)

---

System: U-251
assaySummary: NCI tumour cell line growth inhibition, 48 h
Activity calls are given as the source filed them. No stated cut-off is given here; in the data, active = GI50 up to about 1.1 µM and inactive = higher.
Hi! Could you answer with just one of these? yes for active, no for inactive

Worked cases, answers included:
{"compound": "NNC(=O)CC(=O)Nc1ccccc1F", "targetUnderTest": "U-251", "label": "no"}
{"compound": "S=C1CCSc2c(ccc3ccccc23)N1", "targetUnderTest": "U-251", "label": "no"}
{"compound": "CCn1c(C)nn2c(=O)c3ccccc3nc2c1=O", "targetUnderTest": "U-251", "label": "no"}
{"compound": "O=C(N/C(=C\\c1ccc(Cl)cc1)c1nc2ccccc2[nH]1)c1ccccc1", "targetUnderTest": "U-251", "label": "no"}
{"compound": "O=c1[nH]c2[nH]c(-c3ccc(Br)cc3)cc2c2ccccc12", "targetUnderTest": "U-251", "label": "no"}

Moving on to the next compound.
Hi, do you know how `CCON=C1C(C)(C)C(C)(C)C(C)(C)C1(C)C` came out in this test?
no

---

Tested on: OVCAR-8
assaySummary: NCI tumour cell line growth inhibition, 48 h
Calls of active or inactive are those of the source. No stated cut-off is given here; in the data, active = GI50 up to about 1.1 µM and inactive = higher.
Hi! Could you answer with just one of these? label 1 = active, label 0 = inactive

Worked cases, answers included:
{"compound": "Cn1ncc2c(Cl)ncnc21", "label": "label 0"}
{"compound": "O=C1NC(O)CCN1C1OC(CO)C(O)C1O (stereo not given)", "label": "label 0"}
{"compound": "CC(C)(C)C(=O)C(Cc1ccccc1)C(=O)C(C)(C)C", "label": "label 0"}
{"compound": "CC(C)[C@H]1C(=O)O[B@-](F)(c2ccccc2)/[N+]1=C\\N(C)C", "label": "label 0"}
{"compound": "CCC(=O)NC(Nc1cccc(F)c1)(C(F)(F)F)C(F)(F)F", "label": "label 0"}
{"compound": "CCOC(=O)C1CCn2c(nc3c2c(=O)n(C)c(=O)n3C)S1 (stereo not given)", "label": "label 0"}

Hi, do you know how `CCOC(=O)C1=C(N2CCCC2)NC(=O)CC1=O` came out in this test?
label 0

Hi, do you know how `CC1=C(Nc2c(C)cc(O)cc2O)C(=O)C=c2oc3c(c21)C(C)=C(Nc1c(C)cc(O)cc1O)C(=O)C=3` came out in this test?
label 0

Hi, do you know how CC1(C(=O)Nc2ccc3cc4ccccc4cc3c2)CC2(C)CC(C)(C1)C(O)NC2=O (stereo not given) came out in this test?
label 0

Hi, do you know how CC1CC2=C(S(=O)(=O)c3ccccc3)CC(S(=O)(=O)c3ccccc3)(S(=O)(=O)c3ccccc3)CC21 (stereo not given) came out in this test?
label 0

Hi, do you know how `CC(=N\N=C\c1ccccn1)/C(C)=N/N=C/c1ccccn1` came out in this test?
label 0

Hi, do you know how `O=C(c1ccc(Cl)cc1)N(C(=S)N1CCN(c2ccccc2)CC1)C1CCCCC1` came out in this test?
label 0

Hi, do you know how `O=C(NCc1cccc(C(F)(F)F)c1)c1cc2sccc2nc1C(F)(F)F` came out in this test?
label 0

Hi, do you know how `CC1(C)CC(=O)C(=CNc2nc(-c3ccc(Br)cc3)cs2)C(=O)C1` came out in this test?
label 0

Hi, do you know how O=C1CC[C@H](NC(=O)Cc2ccccc2)C(=O)N1 [ANTINEOPLASTON A10] came out in this test?
label 0

Hi, do you know how O=C(CCCCCCCCC(=O)NN1C(=O)/C(=C\c2ccc(O)c(O)c2)SC1c1ccc(Cl)cc1)NN1C(=O)/C(=C\c2ccc(O)c(O)c2)SC1c1ccc(Cl)cc1 (stereo not given) came out in this test?
label 0

Hi, do you know how Cc1cc2c(c(/C=N/c3ccc(N(C)C)cc3)c1)OC1(C=C2)Oc2ccccc2C(=O)N1C (stereo not given) came out in this test?
label 0

Hi, do you know how COc1cc2cc(C(=O)N3CC(COS(C)(=O)=O)c4c3cc(N)c3ccccc43)[nH]c2c(OC)c1OC (stereo not given) came out in this test?
label 1

Hi, do you know how `CCOC(=O)c1ccc(/N=C/c2ccc(N(CCC#N)S(=O)(=O)c3ccccc3)cc2C)cc1` came out in this test?
label 0

Hi, do you know how `Cc1cc([N+](=O)[O-])c(C)c2c1[nH]c1ccc(O)cc12` came out in this test?
label 0
